Test: NVS_IC_rCaBTZCHL: NovaScreen (NVS) Ion Channel Assay for Calcium Channel, Type L, Benzothiazepine Site (CaBTZCHL) (AID 2283337)
Method: NVS_IC_rCaBTZCHL is a biochemical, single-readout assay that uses extracted gene-proteins from Rat cortical membranes in a tissue-based cell-free assay. Measurements were taken 1.5 hours after chemical dosing in a 48-well plate.NVS_IC_rCaBTZCHL is one of one assay component(s) measured or calculated from the NVS_IC_rCaBTZCHL assay. […] This assay endpoint, NVS_IC_rCaBTZCHL, was analyzed in the positive analysis fitting direction relative to DMSO as the negative control and baseline of activity. […]
Results filed as inconclusive are left out. Activity calls are given as the source filed them. How the source made its calls: active means hit-call score of the fitted dose curve at least 0.9, where 1 is the maximum; inconclusive means response in the unintended direction; inactive means score below 0.9.
In this section we review reported AC50 values for a set of molecules.

// solved cases for AC50 follow
{"columns": ["Molecule", "AC50"],
 "data": [
  ["CCCCCCCCn1sccc1=O", "34.2 µM (active)"],
  ["CC(C)(C)C(O)(CCc1ccc(Cl)cc1)Cn1cncn1 (centres undefined)", "16 µM (active)"],
  ["O=C(N[C@H](c1ccccc1)[C@@H]1CN2CCC1CC2)c1c(Cl)ccc(C(F)(F)F)c1Cl", "3.07 µM (active)"]
]}

Problem: Need AC50, item CCC[CH2][Sn]([Cl])([CH2]CCC)[CH2]CCC
Result: 16.2 µM (active)

###

Experiment: CCTE_Shafer_MEA_dev_interburst_interval_mean: CCTE's Neural Network Formation Assay for Mean Interburst Interval, Shafer Lab (AID 2284046);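 further: well-mean interburst interval of bursting electrodes as AUC over four recording days; curve fitted for decrease in interburst interval relative to DMSO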
The source made the active and inactive calls. The calls were made as follows: active = hit-call score of the fitted dose curve at least 0.9, where 1 is the maximum; inactive = score below 0.9.
# valid calls are yes (active), no (inactive); nothing else

Illustrative cases are given below, each with its answer.
{"columns": ["Compound", "Label"],
 "data": [
  ["ClC1=C(Cl)[C@]2(Cl)[C@H]3[C@H]([C@@H]4C=C[C@H]3C4)[C@@]1(Cl)C2(Cl)Cl", "yes"],
  ["CCC[CH2][Sn]([Cl])([CH2]CCC)[CH2]CCC", "yes"],
  ["O=P(OCCCl)(OCCCl)OCCCl", "no"],
  ["CCCCOC(=O)c1ccccc1C(=O)OCc1ccccc1", "no"],
  ["Clc1ccc(C(c2ccc(Cl)cc2)C(Cl)Cl)cc1", "yes"]
]}

Problem: Tell me the assay call for [Cl-].[Cl-].[Hg+2] please.
Result: yes

Problem: Input Nc1cc(Cl)cc(C(=O)O)c1Cl
Result: no

Problem: How about this compound: CC(C)(C)C(O)(CCc1ccc(Cl)cc1)Cn1cncn1 (stereo not drawn)
Result: no

###

Experiment: CCTE_Mundy_HCI_Cortical_Synap_Neur_Matur_NeuriteLength: CCTE's Synaptogenesis and Neurite Maturation Assay in rat cortical cells for Neurite Length, Mundy Lab (AID 2284214)
Calls of active or inactive are those of the source. How the source made its calls: active means hit-call score of the fitted dose curve at least 0.9, where 1 is the maximum; inactive means score below 0.9.
# output must be one of yes (1) = active, no (0) = inactive

{"columns": ["Compound", "Label"],
 "data": [
  ["[O-][Cl+]O", "no (0)"],
  ["CCC[CH2][Sn]([Cl])([CH2]CCC)[CH2]CCC", "yes (1)"],
  ["ClC1=C(Cl)C2(Cl)C3C(Cl)C=CC3C1(Cl)C2(Cl)Cl (configuration not stated)", "yes (1)"],
  ["CCCCOC(=O)c1ccccc1C(=O)OCc1ccccc1", "no (0)"],
  ["COC(=O)Nc1nc2ccccc2[nH]1", "yes (1)"],
  ["CC(C)(C)C(O)(CCc1ccc(Cl)cc1)Cn1cncn1 (configuration not stated)", "yes (1)"]
]}

Now consider a different compound.
Problem: # lookup: test call for OCCOCCO
Result: no (0)

###

Read-out: Cyclin D1 (CCND1), CCND1 (gene 595)
Assay: LTEA_HepaRG_CCND1: Life Technologies and Expression Analysis (LTEA) Assay for Cyclin D1 (CCND1) using HepaRG (AID 2283451)
Settings: mRNA level, 48 h; actives raise or lower the signal
Activity calls are given as the source filed them. The calls were made as follows: active = hit-call score of the fitted dose curve at least 0.9, where 1 is the maximum; inactive = score below 0.9.
Return exactly one item of T (active), F (inactive)

Consider the worked cases shown below.
{"columns": ["Chemical Structure", "Label"],
 "data": [
  ["Cc1ccc([N+](=O)[O-])cc1", "F"],
  ["CS(=O)(=O)NC(=O)c1cc(Oc2ccc(C(F)(F)F)cc2Cl)ccc1[N+](=O)[O-]", "F"],
  ["COP(=S)(OC)SCN1C(=O)c2ccccc2C1=O", "F"],
  ["Cc1ccc(N)c(N)c1", "F"],
  ["Nc1ccc(Cl)cc1N", "F"]
]}

Problem: Write down the call the test reported for this compound. Item: OCCCl
Result: F

Problem: Record: O=[N+]([O-])c1ccc(Oc2ccc(Cl)cc2Cl)cc1
Result: F

Problem: Another compound to look at: Nc1ccc(N=Nc2ccccc2)cc1
Result: T

###

Read-out: Matrix Metallopeptidase 1 (MMP1), MMP1 (gene 4312)
Experiment: BSK_BE3C_MMP1: BioMAP Diversity Plus: BE3C Assay for Matrix Metallopeptidase 1 (MMP1) Biomarker Activity (AID 2283024)
Conditions: primary human bronchial epithelial cells; actives raise or lower the signal
Active and inactive are the calls of the source. How the source made its calls: active means hit-call score of the fitted dose curve at least 0.9, where 1 is the maximum; inactive means score below 0.9.

{"columns": ["Compound", "outcome"],
 "data": [
  ["O=C(O)C1C2CCC(O2)C1C(=O)O (stereo not drawn)", "inactive"],
  ["CN(C)c1ccc(C(=O)c2ccc(N(C)C)cc2)cc1", "inactive"],
  ["c1ccc2c(c1)-c1cccc3cccc-2c13", "inactive"]
]}

###

Assay: APR_HepG2_CellCycleArrest_24hr: Apredica 24-hour HepG2 Assay for Cell Cycle Arrest (AID 2282905);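 further: cell cycle arrest scored as ratio of 2N to 4N nuclear DNA content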
Conditions: imaging, actives raise or lower the signal
The source made the active and inactive calls. How the source made its calls: active means hit-call score of the fitted dose curve at least 0.9, where 1 is the maximum; inactive means score below 0.9.
Your response should consist of one outcome taken from active, inactive

// below: answered compounds
{"columns": ["Compound", "Label"],
 "data": [
  ["Nc1ccc(Cc2ccc(N)cc2)cc1", "inactive"],
  ["CCN(CC)N=O", "inactive"],
  ["c1ccc(NNc2ccccc2)cc1", "inactive"]
]}

Problem: Could you check what this test reported for O=C(O)C1C2CCC(O2)C1C(=O)O (stereo not given) ?
Result: inactive

###

Assay: CCTE_Shafer_MEA_dev_firing_rate_mean: CCTE's Neural Network Formation Assay for Mean Firing Rate, Shafer Lab (AID 2284031);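 further: AUC of well mean spike rate recorded on DIV 5 7 9 and 12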
Calls of active or inactive are those of the source. The calls were made as follows: active = hit-call score of the fitted dose curve at least 0.9, where 1 is the maximum; inactive = score below 0.9.
In this exercise, the only acceptable responses are active, inactive

For orientation, consider the following solved cases.
{"columns": ["Molecule", "Label"],
 "data": [
  ["CNC(=O)Oc1cccc2c1OC(C)(C)C2", "inactive"],
  ["[O-][Cl+]O", "inactive"],
  ["[Cl-].[Cl-].[Hg+2]", "active"]
]}

Problem: Hello, I am checking results. What call was entered for CC(C)COC(=O)c1ccccc1C(=O)OCC(C)C ?
Result: inactive

Problem: Moving on to the next molecule: CCC[CH2][Sn]([Cl])([CH2]CCC)[CH2]CCC
Result: active

Problem: // same read-out, input: COC(=O)Nc1nc2ccccc2[nH]1
Result: inactive

Problem: Record: ClC1=C(Cl)[C@]2(Cl)[C@H]3[C@H]([C@@H]4C=C[C@H]3C4)[C@@]1(Cl)C2(Cl)Cl
Result: active

Problem: Now the same for CC(C)(O)c1cnn2c(-c3ccc(F)c(-c4c(F)cccc4C#N)c3)cnc2n1
Result: inactive

###

Assay: APR_HepG2_MicrotubuleCSK_72hr: Apredica 72-hour HepG2 Assay for Microtubule CSK Stabilty (AID 2282919)
Conditions: HepG2 microtubule cytoskeleton, high-content imaging, actives raise or lower the signal
Activity calls are given as the source filed them. How the source made its calls: active means hit-call score of the fitted dose curve at least 0.9, where 1 is the maximum; inactive means score below 0.9.
Answer with one of the outcomes true = active, false = inactive

{"columns": ["Compound", "Label"],
 "data": [
  ["CC(C)N(Cc1ccccc1)C(=O)C(C)(C)C", "false"],
  ["Cc1ccc(N=C=O)cc1N=C=O", "false"],
  ["ClC1=C(Cl)C2(Cl)C3C(Cl)C=CC3C1(Cl)C2(Cl)Cl (centres undefined)", "true"],
  ["CCCCCCCCOC(=O)c1ccc(C(=O)OCCCCCCCC)c(C(=O)OCCCCCCCC)c1", "false"],
  ["COP(=S)(OC)SCN1C(=O)c2ccccc2C1=O", "false"],
  ["CN(C)[C@@H]1C(=O)C(C(N)=O)=C(O)[C@@]2(O)C(=O)C3=C(O)c4c(O)cccc4[C@@](C)(O)[C@H]3C[C@@H]12", "false"],
  ["OCCCBr", "false"],
  ["ClCCOCCCl", "false"],
  ["N#CC(Br)(Br)C(N)=O", "false"],
  ["CCCCCCCCCCCCCN1CC(C)OC(C)C1 (centres undefined)", "false"]
]}

Problem: Test call for this compound, please: Nc1ccc(Cl)cc1N
Result: true

Problem: # iterate: Cc1cccc(N)c1N
Result: false

Problem: Next record, please: CC(C)(C)OOC(C)(C)CCC(C)(C)OOC(C)(C)C
Result: false

Problem: // next record COC(=O)c1ccccc1N
Result: false
